assay_text: Cytotoxicity against mouse RAW264.7 cells assessed as cell survival rate at 200 uM after 24 hrs in presence of LPS by MTT assay
Format: toxicity
run_parameters: read-out: Survival

[
  {
    "smiles_str": "COc1ccc2c(c1)O[C@H](c1ccccc1)[C@H](O)C2",
    "viability at 24 h, 200 µM [%]": 104
  },
  {
    "smiles_str": "C[C@@H]1C[C@H]2[C@@H]3CCC4=CC(=O)C=C[C@]4(C)[C@@]3(F)[C@@H](O)C[C@]2(C)[C@@]1(O)C(=O)CO",
    "viability at 24 h, 200 µM [%]": 100
  },
  {
    "smiles_str": "COc1ccc([C@@H]2CCc3ccc(O[C@@H]4O[C@H](CO)[C@@H](O)[C@H](O)[C@H]4O)cc3O2)cc1O",
    "viability at 24 h, 200 µM [%]": 116
  },
  {
    "smiles_str": "COc1ccc([C@@H]2CCc3ccc(O)cc3O2)cc1O[C@@H]1O[C@H](CO)[C@@H](O)[C@H](O)[C@H]1O",
    "viability at 24 h, 200 µM [%]": 114
  }
]

###

assay_text: Cytotoxicity against mouse RAW264.7 cells assessed as cell survival rate at 200 uM after 24 hrs in absence of LPS by MTT assay
Assay type: toxicity
run_parameters: read-out: Survival
endpoint_label: viability at 24 h, 200 µM (%)

[
  {
    "smiles_str": "COc1ccc2c(c1)O[C@H](c1ccccc1)[C@H](O)C2",
    "units_of_measure": "%",
    "observed_value": 119
  },
  {
    "smiles_str": "C[C@@H]1C[C@H]2[C@@H]3CCC4=CC(=O)C=C[C@]4(C)[C@@]3(F)[C@@H](O)C[C@]2(C)[C@@]1(O)C(=O)CO",
    "units_of_measure": "%",
    "observed_value": 91
  },
  {
    "smiles_str": "COc1ccc([C@@H]2CCc3ccc(O[C@@H]4O[C@H](CO)[C@@H](O)[C@H](O)[C@H]4O)cc3O2)cc1O",
    "units_of_measure": "%",
    "observed_value": 104
  },
  {
    "smiles_str": "COc1ccc([C@@H]2CCc3ccc(O)cc3O2)cc1O[C@@H]1O[C@H](CO)[C@@H](O)[C@H](O)[C@H]1O",
    "units_of_measure": "%",
    "observed_value": 123
  }
]
